src = ChEMBL document CHEMBL5442741

- System Tested: Epidermal growth factor receptor (Homo sapiens) (UniProt P00533)
- Sequence (P00533 whole entry): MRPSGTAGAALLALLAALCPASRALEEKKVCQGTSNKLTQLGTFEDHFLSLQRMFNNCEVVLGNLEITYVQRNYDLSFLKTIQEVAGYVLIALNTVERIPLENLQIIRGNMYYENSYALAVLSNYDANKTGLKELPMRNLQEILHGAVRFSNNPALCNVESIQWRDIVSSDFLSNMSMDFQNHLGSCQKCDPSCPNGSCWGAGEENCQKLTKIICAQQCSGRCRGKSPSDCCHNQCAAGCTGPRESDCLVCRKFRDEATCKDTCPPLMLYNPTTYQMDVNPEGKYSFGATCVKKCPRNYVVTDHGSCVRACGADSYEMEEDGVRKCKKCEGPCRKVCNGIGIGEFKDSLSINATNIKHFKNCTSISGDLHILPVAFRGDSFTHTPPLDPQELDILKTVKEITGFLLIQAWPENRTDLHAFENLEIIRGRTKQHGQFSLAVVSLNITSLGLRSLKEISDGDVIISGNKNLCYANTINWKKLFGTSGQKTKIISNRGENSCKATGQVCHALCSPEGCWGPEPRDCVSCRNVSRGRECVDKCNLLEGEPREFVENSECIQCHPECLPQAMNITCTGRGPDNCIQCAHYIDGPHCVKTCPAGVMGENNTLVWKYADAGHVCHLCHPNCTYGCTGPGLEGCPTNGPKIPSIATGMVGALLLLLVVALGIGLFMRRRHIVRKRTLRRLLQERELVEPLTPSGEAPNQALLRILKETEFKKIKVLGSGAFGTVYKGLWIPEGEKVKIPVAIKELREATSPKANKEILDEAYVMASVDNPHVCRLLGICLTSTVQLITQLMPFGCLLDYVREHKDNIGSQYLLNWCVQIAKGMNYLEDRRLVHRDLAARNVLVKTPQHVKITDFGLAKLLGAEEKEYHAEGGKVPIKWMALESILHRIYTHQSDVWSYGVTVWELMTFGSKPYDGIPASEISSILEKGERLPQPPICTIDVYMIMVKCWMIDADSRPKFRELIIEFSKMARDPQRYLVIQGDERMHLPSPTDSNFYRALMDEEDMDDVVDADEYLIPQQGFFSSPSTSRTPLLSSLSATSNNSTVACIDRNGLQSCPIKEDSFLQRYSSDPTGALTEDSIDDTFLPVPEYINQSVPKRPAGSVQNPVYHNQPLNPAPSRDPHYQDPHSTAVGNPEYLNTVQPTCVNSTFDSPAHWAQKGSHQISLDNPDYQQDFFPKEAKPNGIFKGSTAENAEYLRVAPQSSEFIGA
- Measurement Description: Enzymatic radiometric [Km ATP] KinaseProfiler LeadHunter assay, kinase: EGFR, catalogue number: 14-531KP The assay has been performed by Eurofins Discovery.
- Reported Conditions: ATP concentration 10.0 uM, Test compound concentration 10.0 uM
Listed compounds paired with reported Activity
Quick reminder: number only, in %, skip the unit.

Here's what some known entries look like.
> print(dat)
                            smiles.notation  measurement.kind  measurement.units  readout.number
1  CC(C)[C@@H](Nc1ncnc2[nH]c(C(=O)N[C@@H]3CCN(C)C3)cc12)c1ccc2c(c1)S(=O)(=O)CCC2          Activity                  %             102
2  Cn1ncc(-c2cc3c(N[C@@H](c4ccc5c(n4)OCCO5)C(C)(C)C)ncnc3[nH]2)c1C#N          Activity                  %              99
3  COc1ccc([C@@H](Cc2nnn[nH]2)NC(=O)c2ncnc3[nH]ccc23)cc1          Activity                  %              96
4  CNCc1cc(-c2cc3c(N[C@@H](c4ccc5c(c4)S(=O)(=O)CCC5)C(C)C)ncnc3[nH]2)co1          Activity                  %              97
5  COc1ccc([C@H](Cc2nnn[nH]2)NC(=O)c2ncnc3[nH]ccc23)cc1          Activity                  %              97
6  CC(C)[C@H](Nc1ncnc2[nH]c(-c3cnn(C)c3C#N)cc12)c1ccc2c(n1)OCCO2          Activity                  %              90

### Prompt For Epidermal growth factor receptor (Homo sapiens) (UniProt P00533), give the measured Activity of the entry C[C@H](C(=O)O)[C@@H](NC(=O)c1ncnc2[nH]ccc12)c1ccc(Br)cc1
### Response 93

### Prompt For Epidermal growth factor receptor (Homo sapiens) (UniProt P00533), give the measured Activity of the entry CC(C)[C@H](Nc1ncnc2[nH]ccc12)c1ccc2c(c1)S(=O)(=O)CCC2
### Response 95

====

- System Tested: Inhibitor of nuclear factor kappa-B kinase subunit alpha (Homo sapiens)
- Measurement Description: Enzymatic radiometric [Km ATP] KinaseProfiler LeadHunter assay, kinase: IKK-alpha, catalogue number: 14-461KP The assay has been performed by Eurofins Discovery.
- Reported Conditions: ATP concentration 10.0 uM, Test compound concentration 10.0 uM
Measurement Kind: Activity (%)
Quick reminder: number only, in %, skip the unit.

> print(dat)
                            smiles.notation                             system.tested  measurement.kind  readout.number
1  CC(C)[C@H](Nc1ncnc2[nH]c(-c3cnn(C)c3C#N)cc12)c1ccc2c(n1)OCCO2  Inhibitor of nuclear factor kappa-B kinase subunit alpha (Homo sapiens)          Activity             120

### Prompt For Inhibitor of nuclear factor kappa-B kinase subunit alpha (Homo sapiens), give the measured Activity of the entry COc1ccc([C@H](Cc2nnn[nH]2)NC(=O)c2ncnc3[nH]ccc23)cc1
### Response 98

### Prompt For Inhibitor of nuclear factor kappa-B kinase subunit alpha (Homo sapiens), give the measured Activity of the entry CC(C)[C@@H](Nc1ncnc2[nH]c(C(=O)N[C@@H]3CCN(C)C3)cc12)c1ccc2c(c1)S(=O)(=O)CCC2
### Response 82

### Prompt For Inhibitor of nuclear factor kappa-B kinase subunit alpha (Homo sapiens), give the measured Activity of the entry Cn1ncc(-c2cc3c(N[C@@H](c4ccc5c(n4)OCCO5)C(C)(C)C)ncnc3[nH]2)c1C#N
### Response 125

====

- System Tested: PI3-kinase p110-alpha/p85-alpha (Homo sapiens) (UniProt P27986+P42336)
- Measurement Description: Enzymatic radiometric [Km ATP] KinaseProfiler LeadHunter assay, kinase: PI3 Kinase (p110-alpha/p85-alpha), catalogue number: 14-602KP The assay has been performed by Eurofins Discovery.
- Format: protein-complex assay
- Reported Conditions: ATP concentration 200.0 uM, Test compound concentration 10.0 uM
Measurement Kind: Activity (%)
Quick reminder: number only, in %, skip the unit.

Here's what some known entries look like.
> print(dat)
                            smiles.notation  measurement.kind  readout.number
1  Cn1ncc(-c2cc3c(N[C@@H](c4ccc5c(n4)OCCO5)C(C)(C)C)ncnc3[nH]2)c1C#N          Activity              75
2  C[C@H](C(=O)O)[C@@H](NC(=O)c1ncnc2[nH]ccc12)c1ccc(Br)cc1          Activity             100
3  COc1ccc([C@@H](Cc2nnn[nH]2)NC(=O)c2ncnc3[nH]ccc23)cc1          Activity             101
4  CC(C)[C@@H](Nc1ncnc2[nH]c(C(=O)N[C@@H]3CCN(C)C3)cc12)c1ccc2c(c1)S(=O)(=O)CCC2          Activity             104

### Prompt Tell me its Activity given CNC(=O)Cn1cc(-c2cc3c(N[C@@H](c4ccc5c(c4)S(=O)(=O)CCC5)C(C)C)ncnc3[nH]2)cn1 as the entry.
### Response 102

### Prompt Tell me its Activity given CC(C)[C@@H](Nc1ncnc2[nH]ccc12)c1ccc2c(c1)S(=O)(=O)CCC2 as the entry.
### Response 104

====

Listed molecules paired with reported Activity
- System Tested: MAP kinase-activated protein kinase 2 (Homo sapiens) (UniProt P49137)
- Sequence (P49137 whole entry, looked up): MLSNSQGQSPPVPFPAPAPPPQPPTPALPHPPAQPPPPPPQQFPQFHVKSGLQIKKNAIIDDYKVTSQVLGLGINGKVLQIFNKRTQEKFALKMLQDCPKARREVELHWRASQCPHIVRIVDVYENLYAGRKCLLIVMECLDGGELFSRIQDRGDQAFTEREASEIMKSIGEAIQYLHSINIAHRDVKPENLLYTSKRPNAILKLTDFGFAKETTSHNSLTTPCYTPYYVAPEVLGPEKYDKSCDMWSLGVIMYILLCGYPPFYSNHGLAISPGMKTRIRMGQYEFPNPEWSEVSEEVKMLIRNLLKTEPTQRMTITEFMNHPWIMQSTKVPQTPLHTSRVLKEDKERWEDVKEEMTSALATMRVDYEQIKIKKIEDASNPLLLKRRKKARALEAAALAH
- Measurement Description: Enzymatic radiometric [Km ATP] KinaseProfiler LeadHunter assay, kinase: MAPKAP-K2, catalogue number: 14-337KP The assay has been performed by Eurofins Discovery.
- Reported Conditions: ATP concentration 90.0 uM, Test compound concentration 10.0 uM
State the result as a value with its unit after it.

Here's what some known entries look like.
> print(dat)
                            smiles.notation                             system.tested  measurement.kind  result
1  COc1ccc([C@H](Cc2nnn[nH]2)NC(=O)c2ncnc3[nH]ccc23)cc1  MAP kinase-activated protein kinase 2 (Homo sapiens) (UniProt P49137)          Activity    102%
2  CC(C)[C@H](Nc1ncnc2[nH]c(-c3cnn(C)c3C#N)cc12)c1ccc2c(n1)OCCO2  MAP kinase-activated protein kinase 2 (Homo sapiens) (UniProt P49137)          Activity    115%
3  CC(C)[C@@H](Nc1ncnc2[nH]ccc12)c1ccc2c(c1)S(=O)(=O)CCC2  MAP kinase-activated protein kinase 2 (Homo sapiens) (UniProt P49137)          Activity    105%
4  C[C@H](C(=O)O)[C@@H](NC(=O)c1ncnc2[nH]ccc12)c1ccc(Br)cc1  MAP kinase-activated protein kinase 2 (Homo sapiens) (UniProt P49137)          Activity     98%

### Prompt Tell me its Activity given Cn1ncc(-c2cc3c(N[C@@H](c4ccc5c(n4)OCCO5)C(C)(C)C)ncnc3[nH]2)c1C#N as the entry.
### Response 110%

### Prompt Tell me its Activity given CC(C)[C@H](Nc1ncnc2[nH]ccc12)c1ccc2c(c1)S(=O)(=O)CCC2 as the entry.
### Response 106%

### Prompt Tell me its Activity given Cc1nn(C)cc1-c1cc2c(N[C@H](c3ccc4c(c3)S(=O)(=O)CCC4)C(C)C)ncnc2[nH]1 as the entry.
### Response 110%

### Prompt Tell me its Activity given COc1ccc([C@@H](Cc2nnn[nH]2)NC(=O)c2ncnc3[nH]ccc23)cc1 as the entry.
### Response 92%

### Prompt Tell me its Activity given CC(C)[C@@H](Nc1ncnc2[nH]c(C(=O)N[C@@H]3CCN(C)C3)cc12)c1ccc2c(c1)S(=O)(=O)CCC2 as the entry.
### Response 108%

### Prompt Tell me its Activity given CNCc1cc(-c2cc3c(N[C@@H](c4ccc5c(c4)S(=O)(=O)CCC5)C(C)C)ncnc3[nH]2)co1 as the entry.
### Response 106%

### Prompt Tell me its Activity given CNC(=O)Cn1cc(-c2cc3c(N[C@@H](c4ccc5c(c4)S(=O)(=O)CCC5)C(C)C)ncnc3[nH]2)cn1 as the entry.
### Response 111%

====

- System Tested: MAP kinase-activated protein kinase 5 (Homo sapiens) (UniProt Q8IW41)
- Sequence (Q8IW41 whole entry): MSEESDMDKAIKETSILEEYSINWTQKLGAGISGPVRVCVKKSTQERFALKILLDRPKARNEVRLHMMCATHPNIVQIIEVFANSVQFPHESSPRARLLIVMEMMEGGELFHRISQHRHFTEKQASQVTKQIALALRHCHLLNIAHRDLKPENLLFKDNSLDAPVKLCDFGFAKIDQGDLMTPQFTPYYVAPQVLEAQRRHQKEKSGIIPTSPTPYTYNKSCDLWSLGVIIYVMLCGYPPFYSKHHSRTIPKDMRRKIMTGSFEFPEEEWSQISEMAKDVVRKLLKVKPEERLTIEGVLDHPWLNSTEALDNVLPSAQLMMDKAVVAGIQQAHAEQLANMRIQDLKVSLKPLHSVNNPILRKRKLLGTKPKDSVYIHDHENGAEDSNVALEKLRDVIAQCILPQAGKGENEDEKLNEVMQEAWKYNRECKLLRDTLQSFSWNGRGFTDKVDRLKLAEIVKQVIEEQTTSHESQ
- Measurement Description: Enzymatic radiometric [Km ATP] KinaseProfiler LeadHunter assay, kinase: PRAK, catalogue number: 14-334KP The assay has been performed by Eurofins Discovery.
- Reported Conditions: ATP concentration 15.0 uM, Test compound concentration 10.0 uM
Listed molecules paired with reported Activity
Quick reminder: number only, in %, skip the unit.

> print(dat)
                            smiles.notation  measurement.units  readout.number
1  CC(C)[C@H](Nc1ncnc2[nH]ccc12)c1ccc2c(c1)S(=O)(=O)CCC2                  %             102
2  COc1ccc([C@H](Cc2nnn[nH]2)NC(=O)c2ncnc3[nH]ccc23)cc1                  %             109
3  CNCc1cc(-c2cc3c(N[C@@H](c4ccc5c(c4)S(=O)(=O)CCC5)C(C)C)ncnc3[nH]2)co1                  %             122
4  CC(C)[C@@H](Nc1ncnc2[nH]c(C(=O)N[C@@H]3CCN(C)C3)cc12)c1ccc2c(c1)S(=O)(=O)CCC2                  %             111
5  CC(C)[C@@H](Nc1ncnc2[nH]ccc12)c1ccc2c(c1)S(=O)(=O)CCC2                  %             107

Attention now shifts to the item below.
### Prompt Tell me its Activity given CNC(=O)Cn1cc(-c2cc3c(N[C@@H](c4ccc5c(c4)S(=O)(=O)CCC5)C(C)C)ncnc3[nH]2)cn1 as the entry.
### Response 89
